Target: pooled human IgG (human IgG1,2,3 and 4)
Assignment: determine reported Enzyme Activity Endpoint Assay: Fab′2 for the given proteins.
Numbers only, in ng/µL.

Here are 2 proteins together with their reported answers.
protein="PRT-243 (protein) MVTSVWTKGVTPPANFTQGEDVFHAPYVANQGWYDITKLFNGKDDLLCGAATAGNMLHWWFDQNKDQIKRYLEEHPEKQKINFNGEQMFDVKEAIDTKNHQLDSKLFDYFKEKAFPNLSTKHLGVFPDHVIDMFINGYRLSLLNHGPTPVKEGSKDPRGGIFDAVFTRGDQSKLLTSRHDFKEKNLKEISDLIKKELTEGKALGLSHTYANGRINHVINLWGADFDSNGNLKAIYVTDSDSNPSIGMKKYFVGVNSSGKVAISAKEIKEDNIGAQVLGLFTLSTGQDSWNQTN" data_value=967
protein="PRT-476 (protein) MVTSVWTKGVTPPTNFTYGEDVLHAPYVANQGWYDITKAFDGGDDLLCGAATAGNMLHWWFDQNKEQIENYLKKHPEKQKINFNGEQMFDVKEAIDTKDSQTNSELFNYFKEKAFPYLSTKHLGVFPDHVIDMFINGYRLSLTNHGPTPVKRGSKDPRGGIFDAVFTRGDQSKLLTNRHDLKNKTLKEISDLIKQELTEGKALGISHTYANVRINHVINLWGADFDAEGNLEAIYVTDSDSNASIGMKKYFVGVNSNGKVAISAKEIEEDNIGAQVLGLFTLSTGQDIWNQTNLEHHHHHH" data_value=0

Hey, can you go through the list below and give me Enzyme Activity Endpoint Assay: Fab′2 for every item?
1. PRT-88 (protein) MANQEIRYSEVTPYHVTSVWTKGVTPPAKFTQGEDVFHAPYVANQGWYDITKTFNGKDDLLCGAATAGNMLHWWFDQNKEKIEAYLKKHPEKQKIMFGDQELLDVRKVINTKGDQTNSELFNYFRDKAFPGLSARRLGVMPDLVLDMFINGYYLNVYKTQTTDVNRTYQEKDRRGGIFDAVFTRGDQSKLLTSRHDFKEKNLKEISDLIKKELTEGKALGLSHTYANVRINHVINLWGADFDSNGNLKAIYVTDSDSNASIGMKKYFVGVNSAGKVAISAKEIKEDNIGAQVLGLFTLSTGQDIWNQTN
2. PRT-275 (protein) MVTSVWTKGVTPPTDFIYGEDVLHAPYKAGQGWYDITKLFNGKDNLLCGAATAGNMLHWWFDQNKEQIENYLKKHPEKQKIIFNNQELFDLKAAIDTKDSQLDSKLFDYFKEKAFPNLSTKHLGVFPDHVIDMFINGYRLSLLNHGPTPVKRGSKDKRGGIFDAVFTRGVQSKLLTNRHDLKNKTLKEISDLIKQELTEGKALGISHTYANGRINHVINLWGADFDAEGNLEAIYVTDSDTNPSIGMKKYFVGVNSSGKVAISAKEIEEDNIGAQVLGLFTLSTGQDIWNQTN
3. PRT-503 (protein) MITSVWTKGVTPPTDFIKGEDVFHAPYKAGQGWYDITKAFDGGDDLLCGAATAGNMLHWWFDQNKEYIEAYLKKHPEKQKIMFGDQELLDVRKAINTKGSQKNSELFNYFRDKAFPNLSARRLGVMPDLVLDMFINGYYLNVTKTQTTDVNRQEQEKDKRGGIFDAVFGRGDQTKLLTSRHDLKNKGLNEISQLIKQELTEGKALGLSHTYANVRINHVINLWGADFDADGNLEAIYVTDSDSNASIGMKKYFVGVNSAGKVAISAKEIKEDNIGAQVLGLFTLSTGQKIWNKTNLEHHHHHH
4. PRT-92 (protein) MANQEIRYSEVTPYTITSVWTKGVTPPADFTQGEDVFHAPYVANQGWYDITKTFNGKDDLLCGAATAGNMLHWWFDQNKEKIEAYLKKHPEKQKIMFGDQELLDVRKAINTKDDQTNSELFNYFRDKAFPNLSARRLGVMPDLVLDMFINGYYLNVYKTQTTDVNRTYQEKDKRGGIFDAVFTRGDQSKLLTSRHDFKEKNLKEISDLIKQELTEGKALGLSHTYANVRINHVINLWGADFDSEGNLKAIYVTDSDSNASIGMKKYFVGVNSAGKVAISAKEIKEDNIGAQVLGLFTLSTGQDIWNQTN
5. PRT-508 (protein) MITSVWTKGVTPPTDFIKGEDVFHAPYKAGQGWYDITKTFNGKDDLLCGAATAGNMLHWWFDQNKEEIEAYLKKHPEKQKIMFGDQELLDVRKVINTKDSQTNSALFNYFKDKAFPNLSARRLGVMPDLVLDMFINGYYLNVYKTQTTDVNRTYQTKDRRGGIFDAVFTRGDQSKLLTERHDLKNKTLKEISDLIKQELTEGKALGLSHTYANVRINHVINLWGADFDSNGNLEAIYVTDSDSNASIGMKKYFVGVNSAGKVAISAKEIKEDNIGAQVLGLFTLSTGQDIWNQTNLEHHHHHH
6. PRT-97 (protein) MANQEIRYSEVTPYHVTSVWTKGVTPPAKFTQGEDVFHAPYVANQGWYDITKTFNGKDDLLCGAATAGNMLHWWFDQNKEKIEAYLKKHPEKQKIMFGDQELLDVRKVINTKGDQTNSELFNYFRDKAFPGLSARRIGVMPDLVLDMFINGYYLNVYKTQTTDVNRTYQEKDRRGGIFDAVFTRGDQSKLLTSRHDFKEKNLKEISDLIKKELTEGKALGLSHTYANVRINHVINLWGADFDSNGNLKAIYVTDSDSNASIGMKKYFVGVNSAGKVAISAKEIKEDNIGAQVLGLFTLSTGQDSWNQTN

Resp:
1: 48; 2: 169; 3: 0; 4: 40; 5: 0; 6: 524
